Just for reference, patent US20240002497A1 is where these values come from.

Biological target: T1, huNav1.7α + β1-β2-β3 (human, UniProt Q15858 1-1988; A5A6L6 19-218; O60939 30-215; Q2KI11 23-215)
T1 construct: Cell line (CHO FlpIn, HEK FlpIn, transient HEK293T) is named under assay; also called huNav1.7-beta1-beta2-beta3; human Nav1.7α with Navβ1, Navβ2 and Navβ3
Assay: binding FACS, CHO FlpIn cells
Measurement kind: EC50 (nM)

Some binders with recorded EC50:
# Binder, Measurement kind, Recorded number
data = [
    ("F010301593 (VHH, R96K vs F0103362B08 (Kabat)) VHH: EVQLVESGGGLVQAGGSLRLSCAASVRPFSTSAMGWFRQAPEKEREAVAGILWNGIVTYYADSVKGRFTISRDNAKNEVYLQMNKLKPEDTAVYYCALDKDYGGRSFSAYEYEYWGQGTLVTVSS", "EC50", 110),
    ("F010302346 (VHH) VHH: EVQLVESGGGVVQPGGSLRLSCAASHRAFIRDVFTGWYRQAPGKQRELVARIYESGNTQYADSAKGRFTISRDNAKKTVYLQMNSLRPEDTALYYCLFSGTISTGREYRSGDYWGQGTLVTVSS", "EC50", 5),
]

[P] F010302351 (VHH) VHH: EVQLVESGGGVVQPGGSLRLSCAASSRQFIRDVFTGWYRRAPGKQRELVARIYESGNTQYADSVKGRFTISRDNAKKTVYLQMNSLRPEDTALYYCLFSGTISTGREYRSGDYWGQGTLVTVSS
[Q] F010302355 (VHH) VHH: EVQLVESGGGVVQPGGSLRLSCAASHRAFIRDVFTGWYRRAPGKQRELVARIYEGGNTQYADSVKGRFTISRDNAKKTVYLQMNSLRPEDTALYYCLFSGTISTGREYRSGDYWGQGTLVTVSS
// select label with min value of measured EC50 from [ P , Q ] Give the label of your selection.
Q
